The origin of these recorded values is patent US20250340552A1.

Target of assay: Cbl-B (Homo sapiens)
Construct: MSD-Based Assay for Degradation of Cbl-B in THP-1 Cells; endogenous in cells; host or cells: THP-1 (title) / Jurkat (protocol text)
Sequence (Q13191 whole entry): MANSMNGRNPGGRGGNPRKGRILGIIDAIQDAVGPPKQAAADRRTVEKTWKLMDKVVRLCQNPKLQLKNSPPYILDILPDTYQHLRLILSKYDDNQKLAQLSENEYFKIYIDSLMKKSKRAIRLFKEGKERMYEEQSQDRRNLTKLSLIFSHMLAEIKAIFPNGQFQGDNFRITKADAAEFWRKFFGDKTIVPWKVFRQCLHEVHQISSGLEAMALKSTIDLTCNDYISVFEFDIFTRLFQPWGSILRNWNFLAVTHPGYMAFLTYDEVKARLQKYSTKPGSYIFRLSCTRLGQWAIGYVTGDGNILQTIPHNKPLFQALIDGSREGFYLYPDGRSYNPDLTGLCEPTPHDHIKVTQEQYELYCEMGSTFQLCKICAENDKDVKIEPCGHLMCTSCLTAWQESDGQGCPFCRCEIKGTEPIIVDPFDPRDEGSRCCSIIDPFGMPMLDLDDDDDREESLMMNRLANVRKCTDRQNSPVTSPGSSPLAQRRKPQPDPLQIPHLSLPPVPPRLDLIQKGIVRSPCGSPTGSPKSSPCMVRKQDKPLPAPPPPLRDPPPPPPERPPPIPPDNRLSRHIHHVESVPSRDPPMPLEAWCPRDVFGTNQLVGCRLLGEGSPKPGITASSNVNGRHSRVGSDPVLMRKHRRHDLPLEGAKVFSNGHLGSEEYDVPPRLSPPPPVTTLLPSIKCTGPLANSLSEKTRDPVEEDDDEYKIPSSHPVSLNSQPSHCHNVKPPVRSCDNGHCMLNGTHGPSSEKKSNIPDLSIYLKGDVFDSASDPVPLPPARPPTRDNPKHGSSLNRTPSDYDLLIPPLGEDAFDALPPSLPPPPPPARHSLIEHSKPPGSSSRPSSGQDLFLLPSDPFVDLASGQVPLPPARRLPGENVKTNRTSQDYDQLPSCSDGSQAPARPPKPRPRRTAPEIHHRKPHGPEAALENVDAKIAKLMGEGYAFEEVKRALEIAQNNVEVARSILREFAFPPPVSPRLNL
Assay method text: MSD-based assay for degradation of Cbl-B in THP-1 cells
Format: cell-based
Applied conditions: Cbl-B degradation, Jurkat cells seeded (heading: THP-1 cells), 24 hours incubation, MSD readout
Endpoint label: DC50

// below: answered molecules
molecule="CO[C@H]1C[C@](c2cccc(-n3cc4c(C(F)(F)F)cc(CN5CCC(COCc6ccc(CN7CCN(c8ccc9c(c8)CN([C@@H]8CCC(=O)NC8=O)C9=O)CC7)cc6)CC5)cn4c3=O)c2)(c2nncn2C)C1 [Compound 223]" target_of_assay="Cbl-B (Homo sapiens)" measured_result="30 to 300 nM"
molecule="Cn1cnnc1CC1(c2cccc(N3Cc4c(cc(CN5CCC(OCCOCc6ccc(COCCNc7cccc8c7C(=O)N(C7CCC(=O)NC7=O)C8=O)cc6)CC5)cc4C(F)(F)F)C3=O)c2)COC1 (stereo not shown) [Compound 21]" target_of_assay="Cbl-B (Homo sapiens)" measured_result="1000 to 10000 nM"
molecule="Cn1cnnc1[C@@H](c1cccc(-n2cc3c(C(F)(F)F)cc(CN4CC[C@@H](OCCOCc5ccc(COCCNc6cccc7c6C(=O)N(C6CCC(=O)NC6=O)C7=O)cc5)C4)cn3c2=O)c1)C1CCC1 (stereo partly shown) [Compound 59]" target_of_assay="Cbl-B (Homo sapiens)" measured_result="300 to 1000 nM"

IN: Item under review: CN(CCOC1CCN(Cc2cc(C(F)(F)F)c3cn(-c4cccc([C@H](c5nncn5C)C5CCC5)c4)c(=O)n3c2)CC1)C(=O)c1ccc(N2C3CC2CN(c2ccc4c(c2)CN([C@@H]2CCC(=O)NC2=O)C4=O)C3)cc1 (single isomer, unassigned) [Compound 145] . Reported DC50?
OUT: > 10000 nM

IN: Given Cn1cnnc1CC1(c2cccc(-n3cc4c(C(F)(F)F)cc(CN5CCC[C@H](OCCN6CCC(CN7CCN(c8ccc9c(c8)CN([C@H]8CCC(=O)NC8=O)C9=O)CC7)CC6)C5)cn4c3=O)c2)COC1 (single isomer, unassigned) [Compound 52] , state its recorded DC50.
OUT: 30 to 300 nM

IN: DC50 for Cn1cnnc1[C@@H](c1cccc(-n2cc3c(C(F)(F)F)cc(-c4nccn4CCOCCN4CCC(CN5CCN(c6ccc7c(c6)CN([C@H]6CCC(=O)NC6=O)C7=O)CC5)CC4)cn3c2=O)c1)C1CCC1 (single isomer, unassigned) [Compound 98] ?
OUT: > 10000 nM

IN: Data request, read-out DC50, for Cn1cnnc1[C@@H](c1cccc(-n2cc3c(C(F)(F)F)cc(CN4CCC(OCc5ccc(CN6CCN(c7ccc8c(c7)CN([C@@H]7CCC(=O)NC7=O)C8=O)CC6)cc5)CC4)cn3c2=O)c1)C1CCC1 (single isomer, unassigned) [Compound 91]
OUT: 300 to 1000 nM

IN: For Cn1cnnc1[C@@H](c1cccc(-n2cc3c(C(F)(F)F)cc(CN4CCC(O[C@@H]5CCCN(C(=O)c6ccc(N7CCN(c8ccc9c(c8)CN([C@H]8CCC(=O)NC8=O)C9=O)CC7)cc6)C5)CC4)cn3c2=O)c1)C1CCC1 (single isomer, unassigned) [Compound 226] , what is its reported DC50?
OUT: 30 to 300 nM
